Protein target, amino acids: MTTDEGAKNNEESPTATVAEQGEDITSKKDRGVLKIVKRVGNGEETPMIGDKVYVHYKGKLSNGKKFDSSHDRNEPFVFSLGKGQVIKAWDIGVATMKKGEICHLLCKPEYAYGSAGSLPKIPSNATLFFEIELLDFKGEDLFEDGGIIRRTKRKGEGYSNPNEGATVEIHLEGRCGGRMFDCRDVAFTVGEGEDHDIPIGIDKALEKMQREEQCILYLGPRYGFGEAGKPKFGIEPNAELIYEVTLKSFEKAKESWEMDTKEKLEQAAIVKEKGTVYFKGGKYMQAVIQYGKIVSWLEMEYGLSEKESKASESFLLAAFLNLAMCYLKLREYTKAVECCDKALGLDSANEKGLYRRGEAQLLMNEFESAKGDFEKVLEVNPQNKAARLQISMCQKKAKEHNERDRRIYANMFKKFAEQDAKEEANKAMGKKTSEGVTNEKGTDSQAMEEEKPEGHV
Peptide text beside a SMILES is read from it.
Kindly supply the reported IC50 values for the records listed here.
Numbers only, in µM.

CC(C)C[C@H](NC(=O)[C@H](CO)NC(=O)[C@H](CCC(N)=O)NC(=O)[C@H](C)N)C(=O)N[C@@H](C)C(=O)N[C@@H](CCC(=O)O)C(=O)N[C@@H](CC(=O)O)C(=O)N[C@@H](CC(=O)O)C(=O)N[C@H](C(=O)N[C@@H](CCC(=O)O)C(=O)O)C(C)C [Tom20] (H-AQSLAEDDVE-OH) ... 132

Okay, now this compound:
Recorded IC50 of CSCC[C@H](NC(=O)[C@H](CCCCN)NC(=O)[C@H](CCC(=O)O)NC(=O)[C@H](CC(=O)O)NC(=O)[C@H](CC(=O)O)NC(=O)[C@@H](N)CO)C(=O)N1CCC[C@H]1C(=O)N[C@@H](CC(=O)O)C(=O)N[C@@H](CC(C)C)C(=O)N[C@@H](CCC(=O)O)C(=O)O [p23] (H-SDDEKMPDLE-OH) , please. 189

* * *

Target chain: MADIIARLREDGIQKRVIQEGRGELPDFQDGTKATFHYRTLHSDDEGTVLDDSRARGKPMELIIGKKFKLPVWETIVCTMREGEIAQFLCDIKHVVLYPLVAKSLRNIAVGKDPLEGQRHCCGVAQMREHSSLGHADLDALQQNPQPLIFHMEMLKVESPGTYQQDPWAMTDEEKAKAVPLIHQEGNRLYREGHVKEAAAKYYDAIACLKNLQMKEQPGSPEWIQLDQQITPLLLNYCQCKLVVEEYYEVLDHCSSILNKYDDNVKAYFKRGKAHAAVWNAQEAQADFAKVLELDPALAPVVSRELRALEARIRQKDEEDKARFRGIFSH
Peptide text beside a SMILES is read from it.
What pIC50 was measured for each of the following?
Numbers only, as −log10 of the molar value.

Example entries begin here.
CC(C)C[C@H](NC(=O)[C@H](CC(=O)O)NC(=O)[C@H](Cc1ccc(O)cc1)NC(=O)[C@H](CC(C)C)NC(=O)[C@H](CC(C)C)NC(=O)[C@H](CO)NC(=O)[C@H](CC(N)=O)NC(=O)[C@H](CCC(N)=O)NC(=O)[C@@H](N)Cc1ccccc1)C(=O)N[C@@H](CC(=O)O)C(=O)O [DNAAF2] (H-FQNSLLYDLD-OH) ... 5.07
CSCC[C@H](NC(=O)[C@H](CCCCN)NC(=O)[C@H](CCC(=O)O)NC(=O)[C@H](CC(=O)O)NC(=O)[C@H](CC(=O)O)NC(=O)[C@@H](N)CO)C(=O)N1CCC[C@H]1C(=O)N[C@@H](CC(=O)O)C(=O)N[C@@H](CC(C)C)C(=O)N[C@@H](CCC(=O)O)C(=O)O [p23] (H-SDDEKMPDLE-OH) ... 4.26
CSCC[C@H](NC(=O)[C@H](CC(N)=O)NC(=O)[C@@H](NC(=O)[C@H](CO)NC(=O)[C@H](CC(N)=O)NC(=O)[C@H](CCCCN)NC(=O)[C@@H](N)CCC(=O)O)C(C)C)C(=O)N[C@@H](CC(=O)O)C(=O)N[C@@H](CC(C)C)C(=O)N[C@@H](CC(=O)O)C(=O)O [Hsp105] (H-EKNSVNMDLD-OH) ... 5.06
CSCC[C@H](NC(=O)[C@H](CCCNC(=N)N)NC(=O)[C@H](CO)NC(=O)[C@H](C)NC(=O)[C@H](CC(=O)O)NC(=O)[C@@H](N)CCC(=O)O)C(=O)N[C@@H](CCC(=O)O)C(=O)N[C@@H](CCC(=O)O)C(=O)N[C@H](C(=O)N[C@@H](CC(=O)O)C(=O)O)C(C)C ... 4.75
CC(C)C[C@H](NC(=O)[C@H](CO)NC(=O)[C@H](CCC(N)=O)NC(=O)[C@H](C)N)C(=O)N[C@@H](C)C(=O)N[C@@H](CCC(=O)O)C(=O)N[C@@H](CC(=O)O)C(=O)N[C@@H](CC(=O)O)C(=O)N[C@H](C(=O)N[C@@H](CCC(=O)O)C(=O)O)C(C)C [Tom20] (H-AQSLAEDDVE-OH) ... 4.45
CC(C)C[C@H](NC(=O)[C@H](CO)NC(=O)[C@H](CCC(N)=O)NC(=O)[C@@H]1CCCN1C(=O)[C@H](CCC(=O)O)NC(=O)[C@H](C)N)C(=O)N[C@@H](CC(=O)O)C(=O)NCC(=O)N[C@H](C(=O)N[C@@H](CC(=O)O)C(=O)O)C(C)C [NADSYN1] (H-AEPQSLDGVD-OH) ... 5.01

Suppose we examine the compound CSCC[C@H](NC(=O)[C@H](CC(N)=O)NC(=O)[C@H](CO)NC(=O)[C@H](Cc1ccc(O)cc1)NC(=O)[C@@H](NC(=O)[C@@H]1CCCN1)[C@@H](C)O)C(=O)N[C@@H](CCC(=O)O)C(=O)N[C@@H](CCC(=O)O)C(=O)N[C@H](C(=O)N[C@@H](CC(=O)O)C(=O)O)C(C)C [Usp19] (H-PTYSNMEEVD-OH) ; what pIC50 value has been reported? 4.73
